Test system: OVCAR-8 ovarian
Experiment: NCI-60 one-dose screen, 48 h (100 = growth as untreated, 0 = no growth, -100 = all killed)
Conditions: 10 µM unless noted
The panel holds about 83,000 compounds, 20% with a hit somewhere; the sample as a whole holds those more often.
Label Not fulfilled if growth falls below 20%; label Fulfilled in every other case.

| smilesInput | testedSystem | classLabel |
| --- | --- | --- |
| CC1(C)CC[C@]2(C(=O)N3CCOCC3)CC[C@]3(C)C(=CC[C@@H]4[C@@]5(C)C/C(=C/c6ccccn6)C(=O)C(C)(C)[C@@H]5CC[C@]43C)[C@@H]2C1 | OVCAR-8 ovarian | Fulfilled |
| COc1cc(-c2nn(C(C)(C)C)cc2-c2ccnc(NCCCNS(=O)(=O)c3cccc(F)c3)n2)ccc1Cl | OVCAR-8 ovarian | Fulfilled |
| O=C(Nc1nonc1-c1ccccc1)c1ccc(C(F)(F)F)cc1 | OVCAR-8 ovarian | Fulfilled |

Prompt line: Confirm if growth reported for the compound `O=C(CNc1nc(-c2cccc([N+](=O)[O-])c2)cs1)Nc1cccc([N+](=O)[O-])c1` is 20% or above.
Response line: Not fulfilled

Prompt line: Is growth for `CC(=O)O[C@@H]1C(=O)N(c2cnccn2)[C@H]1c1ccccc1[N+](=O)[O-]` at or above 20%?
Response line: Not fulfilled

Prompt line: Reported growth at or above 20%? `c1cn2c(ccc3nc(-c4cn[nH]c4)c4c(c32)CCCC4)n1`
Response line: Fulfilled

Prompt line: Could you verify whether the entry `O=C1Nc2ccccc2/C1=C/c1ccc(CO)n1-c1ccc(Cl)cc1` shows growth of no less than 20%?
Response line: Fulfilled

Prompt line: Is the recorded value of growth equal to or greater than 20% for this compound? `O=C(NNc1nc2cc(F)ccc2n2cccc12)c1ccncn1`
Response line: Not fulfilled

Prompt line: Does the compound `O=C(NCCN1CCCC1)c1ccc(-c2nc3ccc4[nH]ncc4c3c3c2CCCC3)cc1` have recorded growth that is 20% or more?
Response line: Not fulfilled

====

System: DU-145 prostate
Test: NCI-60 one-dose screen, 48 h (100 = growth as untreated, 0 = no growth, -100 = all killed)
Details: 10 µM unless noted
This is part of a sample that, as a whole, favours compounds with a hit. Of some 83,000 tested, about 20% had one in any assay.
Label key: true (1) means growth under 50%; false (0) means growth of 50% or more.

Take a look at these entries with their results.
| compound | classLabel |
| --- | --- |
| COc1cc(OC)cc(C(=O)Nc2cccc(C#Cc3cccc4[nH]nc(N)c34)c2)c1 | true (1) |
| CCn1c(SCC(=O)Nc2cccc(C(=O)/C=C/c3ccc(Br)cc3)c2)nc2ccccc2c1=O | false (0) |
| COC(=O)C(Cc1ccccc1)Nc1nc(NC(Cc2ccccc2)C(=O)OC)nc(N2CCOCC2)n1 (centres undefined) | false (0) |
| COc1ccc(-c2nc(C(Cl)Cl)nc3cc(-c4ccccc4)nn23)cc1 | true (1) |

Prompt line: Lab log: compare recorded growth with 50%; is it strictly lower for `O=S(=O)(Nc1cccc2ccccc12)c1ccc(-c2cnc(C3CC3)o2)cc1` ?
Response line: true (1)

Prompt line: Confirm or reject: growth of CC1=CC(=O)C2=C(C)CC(OC(=O)CCc3ccccc3)[C@@H]3[C@H](OC(=O)[C@@H]3C)[C@@H]12 (some centres undefined) lies strictly below 50%
Response line: false (0)
